# TESTED_TARGET: Rat brain protein farnesyltransferase (Rattus norvegicus, UniProt Q02293+Q04631)
# Construct: The enzyme is purified according to Reiss, Y., et al., Cell, 62: 81-88 (1990), utilizing steps one through three; from tissue; host or cells: rat brain
# PROTOCOL: In vitro inhibition of protein farnesyltransferase, Amersham scintillation proximity assay with biotin-K Ras B fragment
# Type: biochemical
# STUDY_CONDITIONS: read-out: % inhibition at 0.01 μM
Where a name gives a salt, the structure may show the parent alone.
QUANTITY_KIND: inhibition at 0.01 µM
Please format your answer as a value with the unit trailing.

Input: Hi! What's the reported inhibition at 0.01 µM for CSCC[C@H](NC(=O)c1ccc(CN(CCCn2ccnc2)Cc2cc(F)cc(F)c2)cc1-c1ccccc1C)C(=O)O [Example 1298, Lithium Salt] on Rat brain protein farnesyltransferase (Rattus norvegicus, UniProt Q02293+Q04631)?
Output: 97%

Input: Hi! What's the reported inhibition at 0.01 µM for CSCC[C@H](NC(=O)c1ccc(/C=C(\C#N)c2cccnc2)cc1-c1ccccc1C)C(=O)O [Example 1076, Lithium Salt] on Rat brain protein farnesyltransferase (Rattus norvegicus, UniProt Q02293+Q04631)?
Output: 69%

Input: Hi! What's the reported inhibition at 0.01 µM for CSCC[C@H](NC(=O)c1ccc(C=Cc2cnccc2O)cc1-c1ccccc1C)C(=O)O [Example 1039, Lithium Salt] on Rat brain protein farnesyltransferase (Rattus norvegicus, UniProt Q02293+Q04631)?
Output: 89%

Input: Hi! What's the reported inhibition at 0.01 µM for CSCC[C@H](NC(=O)c1ccc(CN(Cc2cccnc2)Cc2cc(F)cc(F)c2)cc1-c1ccccc1C)C(=O)O [Example 1286, Lithium Salt] on Rat brain protein farnesyltransferase (Rattus norvegicus, UniProt Q02293+Q04631)?
Output: 85%

Input: Hi! What's the reported inhibition at 0.01 µM for CSCC[C@H](NC(=O)c1ccc(CN(Cc2cc(F)cc(F)c2)c2cccnc2)cc1-c1ccccc1C)C(=O)O [Example 1360, Lithium Salt] on Rat brain protein farnesyltransferase (Rattus norvegicus, UniProt Q02293+Q04631)?
Output: 98%

Input: Hi! What's the reported inhibition at 0.01 µM for CSCC[C@H](NC(=O)c1ccc(/C=C/c2cnccc2Cl)cc1-c1ccccc1C)C(=O)O [Example 1040, Lithium Salt] on Rat brain protein farnesyltransferase (Rattus norvegicus, UniProt Q02293+Q04631)?
Output: 90%

Input: Hi! What's the reported inhibition at 0.01 µM for CSCC[C@H](NC(=O)c1ccc(CN(Cc2cccnc2)c2cc(F)cc(F)c2)cc1-c1ccccc1C)C(=O)O [Example 1287, Lithium Salt] on Rat brain protein farnesyltransferase (Rattus norvegicus, UniProt Q02293+Q04631)?
Output: 95%

Input: Hi! What's the reported inhibition at 0.01 µM for CSCC[C@H](NC(=O)c1ccc(/C=C(/C(=O)OC(C)(C)C)c2cccnc2)cc1-c1ccccc1C)C(=O)O [Example 1077, Lithium Salt] on Rat brain protein farnesyltransferase (Rattus norvegicus, UniProt Q02293+Q04631)?
Output: 93%

---

# TESTED_TARGET: Rat brain protein farnesyltransferase (Rattus norvegicus, UniProt Q02293+Q04631)
# Construct: The enzyme is purified according to Reiss, Y., et al., Cell, 62: 81-88 (1990), utilizing steps one through three; from tissue; host or cells: rat brain
# PROTOCOL: In vitro inhibition of protein farnesyltransferase, Amersham scintillation proximity assay with biotin-K Ras B fragment
# Assay type: biochemical
# STUDY_CONDITIONS: Inhibition of farnesyltransferase; compound at 1 × 10^−6 M (Table 2); read-out: % inhibition at 1 × 10^−6 M
Counter-ions that a name gives are not always drawn.
Assign inhibition at 1 µM to each entry below.
Just the number in %, nothing appended.

Input: Fill in: inhibition at 1 µM of "CS(=O)(=O)CC[C@H](NC(=O)c1ccc(/C=C/c2cccnc2)cc1-c1ccccc1)C(=O)O" is ___
Output: 92

Input: Fill in: inhibition at 1 µM of "CCc1nc(NC(=O)c2ccc(COc3cccnc3)cc2-c2ccccc2)sc1C(=O)O" is ___
Output: 39

Input: Fill in: inhibition at 1 µM of "Cc1ccccc1-c1cc(COc2cccnc2)ccc1C(=O)N[C@@H](CCS(C)(=O)=O)C(=O)O" is ___
Output: 97

Input: Fill in: inhibition at 1 µM of "COC(=O)[C@H](CCSC)NC(=O)c1ccc(NC(=O)c2cccnc2)cc1-c1ccccc1C" is ___
Output: 22

Input: Fill in: inhibition at 1 µM of "CCc1cc(C(=O)N[C@@H](CCSC)C(=O)O)c(-c2ccccc2C)cc1COc1cccnc1" is ___
Output: 97

Input: Fill in: inhibition at 1 µM of CSCC[C@H](NC(=O)c1ccc(NC(=O)c2c[nH]cn2)cc1-c1ccccc1)C(=O)O [Example 168, Hydrochloride] is ___
Output: 92

Input: Fill in: inhibition at 1 µM of "CSCC[C@H](NC(=O)c1ccc(CSCc2c[nH]cn2)cc1-c1ccccc1)C(=O)O" is ___
Output: 99

Input: Fill in: inhibition at 1 µM of "CSCC[C@H](NC(=O)c1ccc(CSc2cccnc2)cc1-c1ccccc1)C(=O)O" is ___
Output: 98
